// values below are reported Activity
- Tested on: Plasmodium falciparum
- EXPERIMENT DESCRIPTION: Drug accumulation in digestive vacuole of chloroquine-sensitive Plasmodium falciparum assessed as vacuolar accumulation ratio at pH 5.6
- Format: ADME, organism-based
ASSAY ENDPOINT: Activity

1. CCN(CC)CCCC(CCCN(CC)CC)Oc1ccnc2cc(Cl)ccc12 : 5000
2. CCN(CC)CCCC(C)Nc1ccnc2cc(Cl)ccc12 (stereo not given) : 3700
3. CCN(CC)CCCCNc1ccnc2cc(Cl)ccc12 : 3700
4. CCN(CC)CCCCOc1ccnc2cc(Cl)ccc12 : 67
5. CCN(CC)CCCCSc1ccnc2cc(Cl)ccc12 : 64
